- PROCEDURE_SUMMARY: Cmax in Sprague-Dawley rat at 3 mg/kg, po
- Assay type: ADME, organism-based
- Design: dose 3 mg/kg, route po
- TEST_CONTEXT: in vivo
MEASUREMENT_LABEL: Cmax (µg/mL)
Quick reminder: number only, in µg/mL, skip the unit.

Tell me the measured Cmax of CC1(C)Oc2cc(NS(C)(=O)=O)ccc2N(c2ccc(F)cc2)C1=O , please.
1.49

---

- PROCEDURE_SUMMARY: AUC (0 to infinity) in Sprague-Dawley rat at 1 mg/kg, iv
- Type: ADME, organism-based
- Parameters: time infinity, dose 1 mg/kg, route iv
- TEST_CONTEXT: in vivo
MEASUREMENT_LABEL: AUC(0-inf) (ng·h/mL)
Quick reminder: number only, in ng·h/mL, skip the unit.

Tell me the measured AUC(0-inf) of CC1(C)Oc2cc(NS(C)(=O)=O)ccc2N(c2ccc(F)cc2)C1=O , please.
10200
